Reference source for all entries: patent US20250230165A1

Target under test: Human Polθ polymerase domain (aa1820-2590) (Homo sapiens, UniProt O75417)
Construct: Human Polθ polymerase domain (aa1820-2590) was expressed in E. coli; made in house; host or cells: E. coli
Sequence (O75417 1820-2590): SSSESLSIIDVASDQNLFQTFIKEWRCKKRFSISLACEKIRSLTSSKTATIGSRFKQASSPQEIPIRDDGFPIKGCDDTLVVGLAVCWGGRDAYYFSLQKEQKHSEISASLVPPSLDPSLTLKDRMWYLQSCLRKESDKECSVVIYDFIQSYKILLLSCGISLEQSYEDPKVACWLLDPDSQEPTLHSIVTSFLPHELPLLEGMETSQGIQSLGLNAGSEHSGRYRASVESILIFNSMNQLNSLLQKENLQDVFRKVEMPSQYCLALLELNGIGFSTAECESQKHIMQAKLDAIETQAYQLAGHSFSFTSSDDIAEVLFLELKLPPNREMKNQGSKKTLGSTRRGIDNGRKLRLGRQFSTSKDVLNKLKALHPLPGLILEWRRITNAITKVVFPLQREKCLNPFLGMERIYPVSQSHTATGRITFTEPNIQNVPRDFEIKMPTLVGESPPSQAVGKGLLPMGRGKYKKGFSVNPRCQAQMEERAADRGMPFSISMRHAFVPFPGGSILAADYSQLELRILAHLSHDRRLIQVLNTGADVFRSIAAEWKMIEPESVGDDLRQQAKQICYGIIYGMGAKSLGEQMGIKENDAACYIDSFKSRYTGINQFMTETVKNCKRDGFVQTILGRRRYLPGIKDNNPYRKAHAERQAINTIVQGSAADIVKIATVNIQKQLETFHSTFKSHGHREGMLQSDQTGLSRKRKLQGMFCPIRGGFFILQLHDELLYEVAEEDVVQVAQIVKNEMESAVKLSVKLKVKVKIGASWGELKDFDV
Experiment: Polθ Polymerase Domain Kinact/KI Assay (PicoGreen)
Type: biochemical
Experimental context: 0.8 nM Polθ, 100 nM DNA substrate, kobs vs [I] fit for 2-step covalent inhibitor
# maps each entry to its Kinact/Kl
Reported endpoint: Kinact/Kl (M⁻¹ s⁻¹)

[
  {
    "Molecule": "C=CC(=O)N1Cc2nc(CN3C[C@H]4CC(=O)N(c5cc(C(F)(F)F)cc(C)n5)[C@@H]4C(=O)N(C)c4cccc(C)c43)cn2C[C@@H]1C(F)(F)F (racemic) [Example 322b]",
    "Display unit": "M⁻¹ s⁻¹",
    "Value reported": "1.13e+06"
  },
  {
    "Molecule": "C=CC(=O)N1CC(c2cccc(CN3C[C@H]4CC(=O)N(c5cc(C(F)(F)F)cc(C)n5)[C@@H]4C(=O)N(C)c4cccc(F)c43)c2)C1 [Example 127]",
    "Display unit": "M⁻¹ s⁻¹",
    "Value reported": 650000
  },
  {
    "Molecule": "C=C(CN(C)C)C(=O)N1CCC[C@H]1c1ccc(CN2C[C@H]3CC(=O)N(c4cc(C(F)(F)F)cc(C)n4)[C@@H]3C(=O)N(C)c3cccc(F)c32)cc1 (racemic) [Example 171b]",
    "Display unit": "M⁻¹ s⁻¹",
    "Value reported": "1.62e+06"
  },
  {
    "Molecule": "C=CC(=O)N1CC2(CN(CCN3C[C@H]4CC(=O)N(c5cc(C(F)(F)F)cc(C)n5)[C@@H]4C(=O)N(C)c4cccc(C)c43)CCN2)C1 [Example 114]",
    "Display unit": "M⁻¹ s⁻¹",
    "Value reported": 580000
  },
  {
    "Molecule": "C=CC(=O)N1Cc2ccc(CN3C[C@H]4CC(=O)N(c5cc(C(F)(F)F)cc(C)n5)[C@@H]4C(=O)N(C)c4cccc(Cl)c43)nc2C1CC#N (single isomer, unassigned) [Example 289a]",
    "Display unit": "M⁻¹ s⁻¹",
    "Value reported": "1.26e+06"
  }
]

----------
// reported Kinact/Kl for each item listed
Target under test: Human Polθ polymerase domain (aa1820-2590) (Homo sapiens)
Construct: Human Polθ polymerase domain (aa1820-2590) was expressed in E. coli; made in house; host or cells: E. coli
Experiment: Polθ Polymerase Domain Kinact/KI Assay (PicoGreen)
Type: biochemical
Experimental context: 0.8 nM Polθ, 100 nM DNA substrate, kobs vs [I] fit for 2-step covalent inhibitor

[
  {
    "Molecule": "C=CC(=O)N1CCCC1c1ccc(CN2C[C@H]3CC(=O)N(c4cc(C(F)(F)F)cc(C)n4)[C@@H]3C(=O)N(C)c3cccc(F)c32)cc1 (single isomer, unassigned) [Example 141a]",
    "Kinact/Kl [µM⁻¹ s⁻¹]": 0.20
  },
  {
    "Molecule": "C=CC(=O)N1CCc2cc(CN3C[C@H]4CC(=O)N(c5cc(C(F)(F)F)cc(C)n5)[C@@H]4C(=O)N(C)c4cccc(F)c43)ccc2C1 [Example 131]",
    "Kinact/Kl [µM⁻¹ s⁻¹]": 0.53
  },
  {
    "Molecule": "C=CC(=O)N1CCN(CCCN2C[C@H]3CC(=O)N(c4cc(C(F)(F)F)cc(C)n4)[C@@H]3C(=O)N(C)c3cccc(Cl)c32)CC1CC#N (mixture of isomers) [Example 267a]",
    "Kinact/Kl [µM⁻¹ s⁻¹]": 1.24
  },
  {
    "Molecule": "Cc1cc(C(F)(F)F)cc(N2C(=O)C[C@@H]3CN(CCOCC4CN(C(=O)C5=CCCN(C)C5)C4)c4c(C)cccc4N(C)C(=O)[C@H]32)n1 [Example 197]",
    "Kinact/Kl [µM⁻¹ s⁻¹]": 1.67
  },
  {
    "Molecule": "C=CC(=O)N1CCN2CCN(CCN3C[C@H]4CC(=O)N(c5cc(C(F)(F)F)cc(C)n5)[C@@H]4C(=O)N(C)c4cccc(F)c43)C(=O)[C@H]2C1 [Example 46]",
    "Kinact/Kl [µM⁻¹ s⁻¹]": 0.48
  },
  {
    "Molecule": "C=CC(=O)N1CC2CN(CCN3C[C@H]4CC(=O)N(c5cc(C(F)(F)F)cc(C)n5)[C@@H]4C(=O)N(C)c4cccc(F)c43)CC(C1)O2 [Example 5]",
    "Kinact/Kl [µM⁻¹ s⁻¹]": 0.14
  },
  {
    "Molecule": "C=CC(=O)N1CC(n2cc(CN3C[C@H]4CC(=O)N(c5cc(C(F)(F)F)cc(C)n5)[C@@H]4C(=O)N(C)c4cccc(F)c43)cn2)C1 [Example 121]",
    "Kinact/Kl [µM⁻¹ s⁻¹]": 0.54
  },
  {
    "Molecule": "C=C(CN(C)C)C(=O)NCc1ccc(CN2C[C@H]3CC(=O)N(c4cc(C(F)(F)F)cc(C)n4)[C@@H]3C(=O)N(C)c3cccc(C)c32)cc1 [Example 189]",
    "Kinact/Kl [µM⁻¹ s⁻¹]": 3.35
  },
  {
    "Molecule": "Cc1cc(C(F)(F)F)cc(N2C(=O)C[C@@H]3CN(Cc4ccc5c(c4)CN(C(=O)/C=C/CN(C)C)C5)c4c(C)cccc4N(C)C(=O)[C@H]32)n1 [Example 176]",
    "Kinact/Kl [µM⁻¹ s⁻¹]": 1.37
  },
  {
    "Molecule": "Cc1cc(C(F)(F)F)cc(N2C(=O)C[C@@H]3CN(CCCCNC(=O)/C=C/CN(C)C)c4c(Cl)cccc4N(C)C(=O)[C@H]32)n1 [Example 252]",
    "Kinact/Kl [µM⁻¹ s⁻¹]": 1.19
  },
  {
    "Molecule": "C=CC(=O)N1Cc2ncn(CCN3C[C@H]4CC(=O)N(c5cc(C(F)(F)F)cc(C)n5)[C@@H]4C(=O)N(C)c4cccc(Cl)c43)c2C1 [Example 259]",
    "Kinact/Kl [µM⁻¹ s⁻¹]": 0.15
  },
  {
    "Molecule": "C=CC(=O)N1CC(n2cnc(CN3C[C@H]4CC(=O)N(c5cc(C(F)(F)F)cc(C)n5)[C@@H]4C(=O)N(C)c4cccc(C)c43)n2)C1 [Example 139]",
    "Kinact/Kl [µM⁻¹ s⁻¹]": 2.37
  },
  {
    "Molecule": "C=CC(=O)N1Cc2cc(CN3C[C@H]4CC(=O)N(c5cc(C(F)(F)F)cc(C)n5)[C@@H]4C(=O)N(C)c4cccc(C)c43)cnc2[C@H]1CO (racemic) [Example 233]",
    "Kinact/Kl [µM⁻¹ s⁻¹]": 2.99
  },
  {
    "Molecule": "C=CC(=O)N1CC(N2CCO[C@@H]3CN(CCN4C[C@H]5CC(=O)N(c6cc(C(F)(F)F)cc(C)n6)[C@@H]5C(=O)N(C)c5cccc(F)c54)C[C@H]32)C1 (single isomer, unassigned) [Example 22b]",
    "Kinact/Kl [µM⁻¹ s⁻¹]": 0.46
  },
  {
    "Molecule": "C=CC(=O)N1CC2(CN(CCN3C[C@H]4CC(=O)N(c5cc(C(F)(F)F)cc(C)n5)[C@@H]4C(=O)N(C)c4cccc(F)c43)Cc3nccn32)C1 [Example 105]",
    "Kinact/Kl [µM⁻¹ s⁻¹]": 1.04
  },
  {
    "Molecule": "C=CC(=O)N1Cc2cnc(CN3C[C@H]4CC(=O)N(c5cc(C(F)(F)F)cc(C)n5)[C@@H]4C(=O)N(C)c4cccc(Cl)c43)nc2C1 [Example 278]",
    "Kinact/Kl [µM⁻¹ s⁻¹]": 0.77
  },
  {
    "Molecule": "C=CC(=O)N1Cc2nc(CN3C[C@H]4CC(=O)N(c5cc(C(F)(F)F)cc(C)n5)[C@@H]4C(=O)N(C)c4cccc(C)c43)cn2C[C@H]1C(F)(F)F (racemic) [Example 322a]",
    "Kinact/Kl [µM⁻¹ s⁻¹]": 1.56
  },
  {
    "Molecule": "C=CC(=O)N1CC(N2CCN(CCN3C[C@H]4CC(=O)N(c5cc(C(F)(F)F)cc(C)n5)[C@@H]4C(=O)N(C)c4cccc(C)c43)CC2)C1 [Example 115]",
    "Kinact/Kl [µM⁻¹ s⁻¹]": 2.35
  },
  {
    "Molecule": "C=CC(=O)N1Cc2ccc(CN3C[C@H]4CC(=O)N(c5cc(C(F)(F)F)cc(C)n5)[C@@H]4C(=O)N(C)c4cccc(Cl)c43)nc2C1 [Example 276]",
    "Kinact/Kl [µM⁻¹ s⁻¹]": 1.76
  },
  {
    "Molecule": "C=CC(=O)NC12CC(CN3C[C@H]4CC(=O)N(c5cc(C(F)(F)F)cc(C)n5)[C@@H]4C(=O)N(C)c4cccc(C)c43)(C1)C2 [Example 174]",
    "Kinact/Kl [µM⁻¹ s⁻¹]": 1.08
  },
  {
    "Molecule": "Cc1cc(C(F)(F)F)cc(N2C(=O)C[C@@H]3CN(CC45CC(NC(=O)/C=C/CN(C)C)(C4)C5)c4c(C)cccc4N(C)C(=O)[C@H]32)n1 [Example 178]",
    "Kinact/Kl [µM⁻¹ s⁻¹]": 1.60
  },
  {
    "Molecule": "C=CC(=O)N1C[C@H]2CN(CCN3C[C@H]4CC(=O)N(c5cc(C(F)(F)F)cc(C)n5)[C@@H]4C(=O)N(C)c4cccc(F)c43)CCN2[C@H](C)C1 (relative stereo) [Example 64a]",
    "Kinact/Kl [µM⁻¹ s⁻¹]": 2.06
  }
]
